Provide the recorded glycan array binding signal (z-score) for the entries that follow.
Target: Neu5Ac(a2-3)Gal(b1-4)GlcNAc(b1-3)Gal(b1-4)GlcNAc(b1-3)Gal(b1-4)GlcNAc
Test: glycan array binding signal (z-score within array); higher = stronger binding
Conditions: glycan notation: IUPAC condensed, linker removed
Only a selection was taken, and the strongest signals are over-represented in it overall.
A bare number is all that is needed in reply.

Entry under review: Morniga (Morus nigra) (protein) MAGTSTNTQTTGTSQTVEVGLWGGPGGNAWDDGSYTGIREINLSHGDAIGAFSVIYDLNGQPFTGPTHPGNEPSFKTVKITLDFPNEFLVSVSGYTGVLPRLATGKDVIRSLTFKTNKKTYGPYGKEEGTPFSLPIENGLIVGFKGRSGFVVDAIGVHLS . Reported glycan array binding signal (z-score)?
-0.342

Entry under review: Gal 3 (Homo sapiens), P17931 (protein) MADNFSLHDALSGSGNPNPQGWPGAWGNQPAGAGGYPGASYPGAYPGQAPPGAYPGQAPPGAYHGAPGAYPGAPAPGVYPGPPSGPGAYPSSGQPSAPGAYPATGPYGAPAGPLIVPYNLPLPGGVVPRMLITILGTVKPNANILDFQRGNDVAFHFNPRFNENNRRVIVCNTKLDNNWGREERQSVFPFESGKPFKIQVLVEPDHFKVAVNDAHLLQYNHRVKKLNEISKLGISGDIDLTSASYTMI . Reported glycan array binding signal (z-score)?
3.82
